Each recorded value in this set is attributed to ChEMBL document CHEMBL3352031.

SYSTEM: Heat shock protein HSP 90-alpha (Homo sapiens, UniProt P07900)
TEST: Inhibition of GA-FITC binding to human recombinant Hsp90alpha incubated for 5 hrs by fluorescence polarization assay
REPORTED_METRIC: IC50 (nM)
Numbers only, in nM.

STRUCTURE: COc1cc(/C=C/C(=O)NCCCCNC2=C3C[C@@H](C)C[C@H](OC)[C@H](O)[C@@H](C)/C=C(\C)[C@H](OC(N)=O)[C@@H](OC)/C=C\C=C(/C)C(=O)NC(=CC2=O)C3=O)ccc1O
SCALE_UNIT: nM
OBSERVED_RESULT: 970

STRUCTURE: COc1cc(/C=C/C(=O)NCCCCCCNC2=C3C[C@@H](C)C[C@H](OC)[C@H](O)[C@@H](C)/C=C(\C)[C@H](OC(N)=O)[C@@H](OC)/C=C\C=C(/C)C(=O)NC(=CC2=O)C3=O)cc(OC)c1OC
SCALE_UNIT: nM
OBSERVED_RESULT: 290

STRUCTURE: COc1cc(/C=C/C(=O)N2CCC(CNC3=C4C[C@@H](C)C[C@H](OC)[C@H](O)[C@@H](C)/C=C(\C)[C@H](OC(N)=O)[C@@H](OC)/C=C\C=C(/C)C(=O)NC(=CC3=O)C4=O)CC2)ccc1O
SCALE_UNIT: nM
OBSERVED_RESULT: 1840

STRUCTURE: COc1cc(/C=C/C(=O)NCCCCCCNC2=C3C[C@@H](C)C[C@H](OC)[C@H](O)[C@@H](C)/C=C(\C)[C@H](OC(N)=O)[C@@H](OC)/C=C\C=C(/C)C(=O)NC(=CC2=O)C3=O)ccc1O
SCALE_UNIT: nM
OBSERVED_RESULT: 470

Next compound, IC50 to be filled in.
Fill in the blank: the reported IC50 of COc1ccc(/C=C/C(=O)NCCCCCCNC2=C3C[C@@H](C)C[C@H](OC)[C@H](O)[C@@H](C)/C=C(\C)[C@H](OC(N)=O)[C@@H](OC)/C=C\C=C(/C)C(=O)NC(=CC2=O)C3=O)cc1OC is ____.
410

---

TEST: Safety index, ratio of IC50 for GA to IC50 for test compound against human HL7702 cells after 72 hrs by MTT assay
Type: ADME, cell-based, L02
RUN_CONDITIONS: read-out: Ratio IC50
REPORTED_METRIC: selectivity ratio at 72 h
Numbers only.

// returns reported selectivity ratio at 72 h for input COc1cc(/C=C/C(=O)NCCCCCCNC2=C3C[C@@H](C)C[C@H](OC)[C@H](O)[C@@H](C)/C=C(\C)[C@H](OC(N)=O)[C@@H](OC)/C=C\C=C(/C)C(=O)NC(=CC2=O)C3=O)cc(OC)c1OC
35

---

Would you mind telling me the reported Activity of each entry?
Tested on: Mus musculus
TEST: Hepatotoxicity in Kunming mouse assessed as serum alanine aminotransferase level at 10 mg/kg, iv (reference value: 60.7 +/- 6.9U/L)
Assay type: toxicity, organism-based
Set-up: dose 10 mg/kg, route intravenous
RUN_CONDITIONS: in vivo
Give bare numbers, in U/L.

In the examples that follow, each entry is paired with its recorded Activity.
COMPOUND: COc1cc(/C=C/C(=O)NCCCCCCNC2=C3C[C@@H](C)C[C@H](OC)[C@H](O)[C@@H](C)/C=C(\C)[C@H](OC(N)=O)[C@@H](OC)/C=C\C=C(/C)C(=O)NC(=CC2=O)C3=O)cc(OC)c1OC
Activity, U/L: 40.4
//
COMPOUND: C=CCNC1=C2C[C@@H](C)C[C@H](OC)[C@H](O)[C@@H](C)/C=C(\C)[C@H](OC(N)=O)[C@@H](OC)/C=C\C=C(/C)C(=O)NC(=CC1=O)C2=O [TANESPIMYCIN]
Activity, U/L: 66.6
//
COMPOUND: COc1cc(/C=C/C(=O)NCCCCNC2=C3C[C@@H](C)C[C@H](OC)[C@H](O)[C@@H](C)/C=C(\C)[C@H](OC(N)=O)[C@@H](OC)/C=C\C=C(/C)C(=O)NC(=CC2=O)C3=O)ccc1O
Activity, U/L: 75.3

Below are 3 compounds. Give each one its Activity.
1. COC1=C2C[C@@H](C)C[C@H](OC)[C@H](O)[C@@H](C)/C=C(\C)[C@H](OC(N)=O)[C@@H](OC)/C=C\C=C(/C)C(=O)NC(=CC1=O)C2=O [GELDANAMYCIN]
2. COc1cc(/C=C/C(=O)N2CCC(CNC3=C4C[C@@H](C)C[C@H](OC)[C@H](O)[C@@H](C)/C=C(\C)[C@H](OC(N)=O)[C@@H](OC)/C=C\C=C(/C)C(=O)NC(=CC3=O)C4=O)CC2)ccc1O
3. COc1cc(/C=C/C(=O)NCCCCCCNC2=C3C[C@@H](C)C[C@H](OC)[C@H](O)[C@@H](C)/C=C(\C)[C@H](OC(N)=O)[C@@H](OC)/C=C\C=C(/C)C(=O)NC(=CC2=O)C3=O)ccc1O

273
148.6
72.7

// query Activity value for entry COc1ccc(/C=C/C(=O)NCCCCCCNC2=C3C[C@@H](C)C[C@H](OC)[C@H](O)[C@@H](C)/C=C(\C)[C@H](OC(N)=O)[C@@H](OC)/C=C\C=C(/C)C(=O)NC(=CC2=O)C3=O)cc1OC
52.8

---

TEST: cells
RUN_CONDITIONS: Homo sapiens, L02, 72 h
Description: Cytotoxicity against human HL7702 cells after 72 hrs by MTT assay
REPORTED_METRIC: pIC50
One number for each entry, as −log10 of the molar value.

COMPOUND: COc1cc(/C=C/C(=O)NCCCCCCNC2=C3C[C@@H](C)C[C@H](OC)[C@H](O)[C@@H](C)/C=C(\C)[C@H](OC(N)=O)[C@@H](OC)/C=C\C=C(/C)C(=O)NC(=CC2=O)C3=O)cc(OC)c1OC
pIC50: 5.31

In the following, a different compound is considered.
Requested field: pIC50. Item: C=CCNC1=C2C[C@@H](C)C[C@H](OC)[C@H](O)[C@@H](C)/C=C(\C)[C@H](OC(N)=O)[C@@H](OC)/C=C\C=C(/C)C(=O)NC(=CC1=O)C2=O [TANESPIMYCIN]
7.00

---

System: HepG2
TEST: cells
RUN_CONDITIONS: Homo sapiens, HepG2, 72 h
Description: Cytotoxicity against human HepG2 cells after 72 hrs by MTT assay
REPORTED_METRIC: IC50 (nM)
Numbers only, in nM.

STRUCTURE: COc1cc(/C=C/C(=O)NCCCCCCNC2=C3C[C@@H](C)C[C@H](OC)[C@H](O)[C@@H](C)/C=C(\C)[C@H](OC(N)=O)[C@@H](OC)/C=C\C=C(/C)C(=O)NC(=CC2=O)C3=O)cc(OC)c1OC
IC50 / nM: 562

Attention now turns to another entry.
Entry C=CCNC1=C2C[C@@H](C)C[C@H](OC)[C@H](O)[C@@H](C)/C=C(\C)[C@H](OC(N)=O)[C@@H](OC)/C=C\C=C(/C)C(=O)NC(=CC1=O)C2=O has what IC50?
91

---

System: HeLa
TEST: cells
RUN_CONDITIONS: Homo sapiens, 72 h
Description: Cytotoxicity against human HeLa cells after 72 hrs by MTT assay
REPORTED_METRIC: pIC50
Numbers only, as −log10 of the molar value.

Give one value of pIC50 per listed compound.
1. C=CCNC1=C2C[C@@H](C)C[C@H](OC)[C@H](O)[C@@H](C)/C=C(\C)[C@H](OC(N)=O)[C@@H](OC)/C=C\C=C(/C)C(=O)NC(=CC1=O)C2=O [TANESPIMYCIN]
2. COc1cc(/C=C/C(=O)NCCCCCCNC2=C3C[C@@H](C)C[C@H](OC)[C@H](O)[C@@H](C)/C=C(\C)[C@H](OC(N)=O)[C@@H](OC)/C=C\C=C(/C)C(=O)NC(=CC2=O)C3=O)cc(OC)c1OC

6.89
6.55

---

Exercise: for every item that follows, state its recorded pIC50.
Test system: SW480
TEST: cells
RUN_CONDITIONS: Homo sapiens, SW480, 72 h
Description: Cytotoxicity against human SW480 cells after 72 hrs by MTT assay
Answers are plain numbers, as −log10 of the molar value.

STRUCTURE: COc1cc(/C=C/C(=O)NCCCCCCNC2=C3C[C@@H](C)C[C@H](OC)[C@H](O)[C@@H](C)/C=C(\C)[C@H](OC(N)=O)[C@@H](OC)/C=C\C=C(/C)C(=O)NC(=CC2=O)C3=O)cc(OC)c1OC
OBSERVED_RESULT: 6.10

# input molecule: C=CCNC1=C2C[C@@H](C)C[C@H](OC)[C@H](O)[C@@H](C)/C=C(\C)[C@H](OC(N)=O)[C@@H](OC)/C=C\C=C(/C)C(=O)NC(=CC1=O)C2=O ; wanted: its pIC50
6.24
